Test system: Mus musculus
Test: Immunostimulatory activity in C57BL/6 mouse assessed as induction of IL-4 production in serum at 2 ug, iv administered through PBS solution
Format: functional, organism-based
Active and inactive are the calls of the source. The calls are words filed in the database; no cut-off is given here.
Classes to choose from: active, inactive

CCCCCCCCCCCCCCCCC(C)(C)C(=O)N(C)[C@@H](CO[C@H]1O[C@H](CO)[C@H](O)[C@H](O)[C@H]1O)[C@H](O)[C@H](O)CCCCCCCCCCCCCC
inactive
CCCCCCCCCCCCCCCCCC(=O)N[C@@H](CO[C@H]1O[C@H](CO)[C@H](O)[C@H](O)[C@H]1O)[C@H](O)[C@H](O)CCCCCCCCCCCCCC
active
CCCCCCCCCCCCCCCC[C@@H](C)C(=O)N(C)[C@@H](CO[C@H]1O[C@H](CO)[C@H](O)[C@H](O)[C@H]1O)[C@H](O)[C@H](O)CCCCCCCCCCCCCC
inactive
CCCCCCCCCCCCCCCCC(C)(C)C(=O)N[C@@H](CO[C@H]1O[C@H](CO)[C@H](O)[C@H](O)[C@H]1O)[C@H](O)[C@H](O)CCCCCCCCCCCCCC
active
CCCCCCCCCCCCCCCCCC(=O)N(C)[C@@H](CO[C@H]1O[C@H](CO)[C@H](O)[C@H](O)[C@H]1O)[C@H](O)[C@H](O)CCCCCCCCCCCCCC
inactive

Query :: Please share the test call associated with CCCCCCCCCCCCCCCC[C@@H](O)C(=O)N[C@@H](CO[C@H]1O[C@H](CO)[C@H](O)[C@H](O)[C@H]1O)[C@H](O)[C@H](O)CCCCCCCCCCCCCC .
Result :: active

Query :: // return assay outcome for CCCCCCCCCCCCCCCC[C@@H](C)C(=O)N[C@@H](CO[C@H]1O[C@H](CO)[C@H](O)[C@H](O)[C@H]1O)[C@H](O)[C@H](O)CCCCCCCCCCCCCC
Result :: active

Query :: Call for entry CCCCCCCCCCCCCCCC[C@@H](O)C(=O)N(C)[C@@H](CO[C@H]1O[C@H](CO)[C@H](O)[C@H](O)[C@H]1O)[C@H](O)[C@H](O)CCCCCCCCCCCCCC :
Result :: inactive

###

Tested on: Mus musculus
Assay: Immunostimulatory activity in C57BL/6 mouse assessed as induction of IFN-gamma production in serum at 2 ug, iv administered through PBS solution by ELISA
Type: functional, organism-based
Active and inactive are the calls of the source. No cut-off for these calls is given here.
property.label: Activity

Here is how some compounds turned out for Activity.
CCCCCCCCCCCCCCCC[C@@H](O)C(=O)N[C@@H](CO[C@H]1O[C@H](CO)[C@H](O)[C@H](O)[C@H]1O)[C@H](O)[C@H](O)CCCCCCCCCCCCCC
Active
CCCCCCCCCCCCCCCC[C@@H](C)C(=O)N(C)[C@@H](CO[C@H]1O[C@H](CO)[C@H](O)[C@H](O)[C@H]1O)[C@H](O)[C@H](O)CCCCCCCCCCCCCC
inactive
CCCCCCCCCCCCCCCCC(C)(C)C(=O)N(C)[C@@H](CO[C@H]1O[C@H](CO)[C@H](O)[C@H](O)[C@H]1O)[C@H](O)[C@H](O)CCCCCCCCCCCCCC
inactive
CCCCCCCCCCCCCCCCC(C)(C)C(=O)N[C@@H](CO[C@H]1O[C@H](CO)[C@H](O)[C@H](O)[C@H]1O)[C@H](O)[C@H](O)CCCCCCCCCCCCCC
Active
CCCCCCCCCCCCCCCCCC(=O)N(C)[C@@H](CO[C@H]1O[C@H](CO)[C@H](O)[C@H](O)[C@H]1O)[C@H](O)[C@H](O)CCCCCCCCCCCCCC
inactive
CCCCCCCCCCCCCCCCCC(=O)N[C@@H](CO[C@H]1O[C@H](CO)[C@H](O)[C@H](O)[C@H]1O)[C@H](O)[C@H](O)CCCCCCCCCCCCCC
Active

Query :: Quick one: Activity for CCCCCCCCCCCCCCCC[C@@H](C)C(=O)N[C@@H](CO[C@H]1O[C@H](CO)[C@H](O)[C@H](O)[C@H]1O)[C@H](O)[C@H](O)CCCCCCCCCCCCCC ?
Result :: Active

Query :: Item under review: CCCCCCCCCCCCCCCC[C@@H](O)C(=O)N(C)[C@@H](CO[C@H]1O[C@H](CO)[C@H](O)[C@H](O)[C@H]1O)[C@H](O)[C@H](O)CCCCCCCCCCCCCC . Reported Activity?
Result :: inactive
